Test: protein stability index of a GFP-peptide fusion (GPS, HEK-293T) (PSI 1-6); higher = more stable;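 also: 24-mer peptide tiles fused after GFP, lentivirally expressed, FACS-sorted into six equal bins by GFP/DsRed ratio, decoded by Illumina sequencing, PSI is the read-weighted mean bin number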
Details: treatment: MLN4924 1 uM, 8 h; c terminus: a fixed tail appended

chain sequence: IAHRGERRGIGGIFFDDLDSPSKE [CPOX]
protein stability index: 4.72

chain sequence: TSLKTKFPAEQYYRFHEHWRFVLQ [TSN]
protein stability index: 2.54

chain sequence: PAVRQLLPCARVQICRAQGLETLF [ZSWIM9]
protein stability index: 2.5

chain sequence: PVIEELTNAGFLQTESELQELSEV [FAN1]
protein stability index: 4.92

chain sequence: SSDVSTAGTGASRSSHSSDSGGSD [ELF3]
protein stability index: 5.57

chain sequence: ASAAARLGCNRQSWCLKRYDLEYW [TRIM14]
protein stability index: 1.86

chain sequence: STSEDSLVKQECIKEVVEKREACH [FAN1]
protein stability index: 5.23

chain sequence: SLLLKKPLRVDLILENTSKVPAPK [NOP53]
protein stability index: 2.98

chain sequence: HLVPVIEMWADQLTSLKDLYKSLK [CEP70]
protein stability index: 2.32

chain sequence: LRQHGPPNIVVAIAGNKCDLIDVR [RAB22A]
protein stability index: 2.4

chain sequence: AANPRPDALMKEQLVEMTGLSPRV [ISL2]
protein stability index: 4.19

chain sequence: RERNMAPDLRQDFNMMEQKKRVSM [ADD1]
protein stability index: 4.5

chain sequence: EAAGVVVEEELFHQQGTPRASNRS [LMNB1]
protein stability index: 5.47

chain sequence: LKKSNSAPSKKAAKDPGKGELPNH [FBF1]
protein stability index: 5.08

chain sequence: GAYDFPSPEWDTVTPEAKDLINKM [CAMK2D]
protein stability index: 4.07

---

Assay: protein stability index of a GFP-peptide fusion (GPS, HEK-293T) (PSI 1-6); higher = more stable
Conditions: treatment: DMSO; c terminus: a fixed tail appended
# binarize protein stability index: threshold 4 inclusive, high side Met, low side Not met

chain sequence: CAIQMFSFLFLGCSHSFLLAVMGY [OR10K2]
label value: Not met

chain sequence: VRDQISHCTVKLRQTTGLMEYCLE [TRIM9]
label value: Not met

chain sequence: MDDQGCPRCKTTKYRNPSLKLMVN [MNAT1]
label value: Not met

chain sequence: ENTIAGANHTHTFYGHSHHSHHGH [C10orf62]
label value: Not met

chain sequence: KSGPGDGFFSSAFQARLSGNNLHN [POMT2]
label value: Not met

chain sequence: RPSQYRPDGLRSGDGVPPRSLQDG [LCOR]
label value: Met

chain sequence: DHGCEQLCLNTEDSFVCQCSEGFL [MATN2]
label value: Met

chain sequence: GAAFRDHQLLEPIRDFEARKCPVH [TRIM29]
label value: Not met

chain sequence: MTHQNVELFKELSINVMKQLIGSS [GMCL1]
label value: Not met

chain sequence: ISAHKPLLISSCDWMAAMFGGPFV [RHOBTB2]
label value: Not met

chain sequence: DKENGENVGLESKYLKKREDSIPL [SASS6]
label value: Met

chain sequence: VLITVEDVNDNSPELTITSLFSPV [PCDHGA10]
label value: Not met

chain sequence: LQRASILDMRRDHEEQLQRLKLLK [FBF1]
label value: Not met

chain sequence: EVQGDQQAWFGFAGTPGYLSPEVL [CAMK2B]
label value: Not met

chain sequence: KHFCPRAPVILVGCQLDLRYADLE [RHOBTB2]
label value: Not met

chain sequence: GHGADVLCLDLAPSETGNTFVSGG [GNB5]
label value: Met

---

Assay: protein stability index of a GFP-peptide fusion (GPS, HEK-293T) (PSI 1-6); higher = more stable
Settings: treatment: MLN4924 1 uM, 8 h; c terminus: a fixed tail appended
measured metric: protein stability index

chain sequence: ESTRELGELLGEARYYLVQGLIED [KCTD13]
meas value: 2.91
//
chain sequence: QAWGSMLEVPAGSRLNLTGLGYFS [CCDC3]
meas value: 1.79
//
chain sequence: QEELPALLKALVSELSEHLRDPLT [FCHSD1]
meas value: 2.25
//
chain sequence: FRCLFEAEITQIQSHISDMSVILS [KRT71]
meas value: 2.34
//
chain sequence: CYYCQAYVHHQALLDVKNIAHQNK [HDAC6]
meas value: 2.33
//
chain sequence: LHDNHEQMPTEIEFPESRKPISTK [ZNF649]
meas value: 5.25
//
chain sequence: EGRGPVTPLHLDLTQLHRLSLESS [PLEKHN1]
meas value: 3.28
//
chain sequence: NAKLASDDFRSKYQTEQSLRLLVE [KRT34]
meas value: 3.04
//
chain sequence: RYLGRPPSPTSPPPPELMDVSLVG [DYRK1B]
meas value: 4.07

---

Experiment: protein stability index of a GFP-peptide fusion (GPS, HEK-293T) (PSI 1-6); higher = more stable
Details: treatment: DMSO; c terminus: a fixed tail appended
# Lookup of reported protein stability index keyed by entry

chain sequence: LRIFVWLLLLYFMQVIAIVLYLMM [PHTF1]
protein stability index: 2.99

chain sequence: RHQKIHSGEKPYKCSDCGKAFLTK [ZNF649]
protein stability index: 3.07

chain sequence: NVLHVARLPNRQLISCSEDGSVRI [WDR41]
protein stability index: 2.99

chain sequence: AFASTCLLSRFSVGIFHLMQIAVP [TMEM175]
protein stability index: 3.02

chain sequence: PAYVGPEILSSRASYSGKAADVWS [TRIB3]
protein stability index: 3.09

---

Test: protein stability index of a GFP-peptide fusion (GPS, HEK-293T) (PSI 1-6); higher = more stable
Details: treatment: MLN4924 1 uM, 8 h; c terminus: a fixed tail appended
Binned protein stability index; ranges: low: < 3; mid: ≥ 3 and < 5; high: ≥ 5

chain sequence: EQEIQFEDFTNTLRELGHAEHEIT [PKD2L1]
label value: high
//
chain sequence: QNRRAKLKRSHRESQFLMAKKNFN [HESX1]
label value: mid
//
chain sequence: MTQLSSTLARCAKDILGFAVMFFI [PKD2L1]
label value: low
//
chain sequence: LEETKGRYCMQLSQIQGLIGSVEE [KRT16]
label value: mid
//
chain sequence: EVRSKAEEVVSFVKKNVLVTGGFF [FUNDC2]
label value: low
//
chain sequence: DAEVSCTDNGTFNLSRGQTPLTEG [RETREG3]
label value: high
//
chain sequence: QPGLSFLNLGSGTGYLSTMVGLIL [PCMTD1]
label value: low
//
chain sequence: EELVARSETHAAGHSQEKTHSREK [CHGB]
label value: high
//
chain sequence: GPRRLVSCLSSQSSALSQSGGGST [SPACA3]
label value: mid
//
chain sequence: TPVIAATPVPTITANVTSVPVPPA [BRD3]
label value: mid

---

Test: protein stability index of a GFP-peptide fusion (GPS, HEK-293T) (PSI 1-6); higher = more stable
Settings: treatment: MLN4924 1 uM, 8 h; c terminus: a fixed tail appended

chain sequence: CRREAFRRLGNGVSDDLSSEEDGE [PHTF1]
protein stability index: 4.77
//
chain sequence: ATFSGFKKEQRRLGIPKNPWLWSE [ETS2]
protein stability index: 2.57
//
chain sequence: NGPLGPSEASIASNLQAMSTQMFQ [SMG5]
protein stability index: 3.95
//
chain sequence: GPILQKDYVQLENQWETPPEDLQT [ZNF449]
protein stability index: 5
//
chain sequence: SAAGIEARSRALRRRWCPAGIMLL [SPACA3]
protein stability index: 2.38
//
chain sequence: REETPRMPSWASARDRQPSDFKTD [ELOA2]
protein stability index: 5.03
//
chain sequence: RHCPELAEMSRVSIRILDELVLPF [HNF4A]
protein stability index: 2.31
//
chain sequence: QGVHQGAGFQDIPKRCLKAREHFG [TSN]
protein stability index: 2.9
//
chain sequence: PSTYGGGLSVSSRFSSGGACGLGG [KRT16]
protein stability index: 3.44
//
chain sequence: RHSYQVYRQPIPVQELVLEDLQDG [NET1]
protein stability index: 4.24
//
chain sequence: KDMATGKSKGYGFVSFFNKWDAEN [TIA1]
protein stability index: 2.94
//
chain sequence: RSVRVRLLLSFWKETDPLTFNFIS [PLD5]
protein stability index: 2.54
//
chain sequence: WQQQSYLDSGIHSGATTTAPSLSG [CTNNB1]
protein stability index: 3.78
//
chain sequence: NNQEEETEFKELDGLREALANLRG [CCDC89]
protein stability index: 4.58
//
chain sequence: GGGGAPRGRYGPPSRRSENRVVVS [SRSF1]
protein stability index: 4.29
//
chain sequence: TSPYSDPVVSMDLDPQPITDEEEG [PTPRD]
protein stability index: 5.61
//
chain sequence: ISGREVFEFRPELVNDDDEEADDT [ZC3H15]
protein stability index: 5.47
//
chain sequence: QTWNNSTWSNQTQNIQSWSNHSWN [NANOGP8]
protein stability index: 2.46
//
chain sequence: ERTEESSAVQYFQFYGYLSQQQNM [CARM1]
protein stability index: 2.82
//
chain sequence: TESEARYSSQLSQVQSLITNVESQ [KRT33B]
protein stability index: 4.75
//
chain sequence: ASALTLVLGGRRLRRAWFSWPRAS [SCNN1D]
protein stability index: 2.05
//
chain sequence: AFFKRTIQGNIEYSCPATNECEIT [ESRRG]
protein stability index: 3.23
//
chain sequence: DPLSPMTASSLLSFAELFSFMLQD [FEM1C]
protein stability index: 2.42
//
chain sequence: GGEGVEVELLHNTSYTRQACLVSC [SCNN1D]
protein stability index: 2.55
//
chain sequence: EYSPEEESEPPAPNIRNMAPNSLS [TRAF3IP2]
protein stability index: 5.07
//
chain sequence: AIPYLEHIIHVWEETGSRFHNCLI [VPS39]
protein stability index: 2.36
//
chain sequence: ASCSKNCTNSPAIVRFSGQSRGVP [FBXO34]
protein stability index: 3.63
//
chain sequence: VQAPSYGARPVSSAASVYAGAGGS [KRT18]
protein stability index: 3.82
//
chain sequence: SDSESKPDQEAEPQEAAGAQGRAG [EPB41L3]
protein stability index: 5.63
//
chain sequence: QENQARTHVLSKEVQHLREEKSKQ [LRRC45]
protein stability index: 5.36
//
chain sequence: EDRVKLFGIEIEVTDINDNAPKFQ [PCDHGA10]
protein stability index: 3.52
//
chain sequence: GRRCKKCTEGPIDLVFVIDGSKSL [MATN2]
protein stability index: 2.41
//
chain sequence: QFSSRDCTRPVPRNGGKYCEGRRT [ADAMTS4]
protein stability index: 4.51
